# TEST_DESCRIPTION: Retention time of the compound by RP-HPLC analysis
# Assay type: physicochemical
Square brackets hold non-standard residues; d marks the D form. Peptide text beside a SMILES is read from it. Tle = CC(C)(C)[C@H](N)C(=O)O; Orn = NCCC[C@H](N)C(=O)O

>  <COMPOUND>
CC(C)C[C@@H]1NC(=O)[C@H](CCCN)NC(=O)[C@H](C(C)(C)C)NC(=O)[C@@H]2CCCN2C(=O)[C@@H](Cc2ccccc2)NC(=O)[C@H](CC(C)C)NC(=O)[C@H](CCCN)NC(=O)[C@H](C(C)(C)C)NC(=O)[C@@H]2CCCN2C(=O)[C@@H](CCCNC(=N)N)NC1=O (HELM PEPTIDE1{L.[dF].P.[CC(C)(C)[C@H](N[*:1])C(=O)[*:2]].[Orn].L.[dR].P.[CC(C)(C)[C@H](N[*:1])C(=O)[*:2]].[Orn]}$PEPTIDE1,PEPTIDE1,1:R1-10:R2$$$V2.0)

>  <Retention_time, min>
17.15

$$$$
>  <COMPOUND>
CC(C)C[C@@H]1NC(=O)[C@H](CCCN)NC(=O)[C@H](C(C)(C)C)NC(=O)[C@@H]2CCCN2C(=O)[C@@H](CCCNC(=N)N)NC(=O)[C@H](CC(C)C)NC(=O)[C@H](CCCN)NC(=O)[C@H](C(C)C)NC(=O)[C@@H]2CCCN2C(=O)[C@@H](Cc2ccccc2)NC1=O

>  <Retention_time, min>
16.79

$$$$
>  <COMPOUND>
CC(C)C[C@@H]1NC(=O)[C@H](CCCN)NC(=O)[C@H](C(C)(C)C)NC(=O)[C@@H]2CCCN2C(=O)[C@@H](Cc2ccccc2)NC(=O)[C@H](CC(C)C)NC(=O)[C@H](CCCN)NC(=O)[C@H](C(C)(C)C)NC(=O)[C@@H]2CCCN2C(=O)[C@@H](Cc2ccccc2)NC1=O (HELM PEPTIDE1{L.[dF].P.[CC(C)(C)[C@H](N[*:1])C(=O)[*:2]].[Orn].L.[dF].P.[CC(C)(C)[C@H](N[*:1])C(=O)[*:2]].[Orn]}$PEPTIDE1,PEPTIDE1,1:R1-10:R2$$$V2.0)

>  <Retention_time, min>
19.99

$$$$
>  <COMPOUND>
CC(C)C[C@@H]1NC(=O)[C@H](CCCN)NC(=O)[C@H](C(C)C)NC(=O)[C@@H]2CCCN2C(=O)[C@@H](Cc2ccccc2)NC(=O)[C@H](CC(C)C)NC(=O)[C@H](CCCN)NC(=O)[C@H](C(C)C)NC(=O)[C@H](Cc2c[nH]c3ccccc23)NC(=O)[C@@H](Cc2ccccc2)NC1=O (HELM PEPTIDE1{L.[dF].P.V.[Orn].L.[dF].W.V.[Orn]}$PEPTIDE1,PEPTIDE1,1:R1-10:R2$$$V2.0)

>  <Retention_time, min>
18.78

$$$$
>  <COMPOUND>
CC(C)C[C@@H]1NC(=O)[C@H](CCCN)NC(=O)[C@H](C(C)C)NC(=O)[C@@H]2CCCN2C(=O)[C@@H](Cc2ccccc2)NC(=O)[C@H](CC(C)C)NC(=O)[C@H](CCCN)NC(=O)[C@H](C(C)C)NC(=O)[C@H](Cc2c[nH]c3ccccc23)NC(=O)[C@@H](CCCNC(=N)N)NC1=O (HELM PEPTIDE1{L.[dF].P.V.[Orn].L.[dR].W.V.[Orn]}$PEPTIDE1,PEPTIDE1,1:R1-10:R2$$$V2.0)

>  <Retention_time, min>
16.56

$$$$
>  <COMPOUND>
CC(C)C[C@@H]1NC(=O)[C@H](CCCN)NC(=O)[C@H](C(C)C)NC(=O)[C@H](Cc2c[nH]c3ccccc23)NC(=O)[C@@H](Cc2c[nH]c3ccccc23)NC(=O)[C@H](CC(C)C)NC(=O)[C@H](CCCN)NC(=O)[C@H](C(C)C)NC(=O)[C@H](Cc2c[nH]c3ccccc23)NC(=O)[C@@H](Cc2c[nH]c3ccccc23)NC1=O

>  <Retention_time, min>
18.69

$$$$
>  <COMPOUND>
CC(C)C[C@@H]1NC(=O)[C@H](CCCN)NC(=O)[C@H](C(C)C)NC(=O)[C@@H]2CCCN2C(=O)[C@@H](CCCNC(=N)N)NC(=O)[C@H](CC(C)C)NC(=O)[C@H](CCCN)NC(=O)[C@H](C(C)C)NC(=O)[C@H](Cc2c[nH]c3ccccc23)NC(=O)[C@@H](Cc2ccccc2)NC1=O (HELM PEPTIDE1{L.[dF].W.V.[Orn].L.[dR].P.V.[Orn]}$PEPTIDE1,PEPTIDE1,1:R1-10:R2$$$V2.0)

>  <Retention_time, min>
16.5

$$$$
>  <COMPOUND>
CC(C)C[C@@H]1NC(=O)[C@H](CCCN)NC(=O)[C@H](C(C)C)NC(=O)[C@H](Cc2c[nH]c3ccccc23)NC(=O)[C@@H](Cc2ccccc2)NC(=O)[C@H](CC(C)C)NC(=O)[C@H](CCCN)NC(=O)[C@H](C(C)C)NC(=O)[C@H](Cc2c[nH]c3ccccc23)NC(=O)[C@@H](CCCNC(=N)N)NC1=O (HELM PEPTIDE1{L.[dF].W.V.[Orn].L.[dR].W.V.[Orn]}$PEPTIDE1,PEPTIDE1,1:R1-10:R2$$$V2.0)

>  <Retention_time, min>
16.6

$$$$
>  <COMPOUND>
CC(C)(C)[C@@H]1NC(=O)[C@H](CCCN)NC(=O)[C@H](C(C)(C)C)NC(=O)[C@@H]2CCCN2C(=O)[C@@H](Cc2ccccc2)NC(=O)[C@H](C(C)(C)C)NC(=O)[C@H](CCCN)NC(=O)[C@H](C(C)(C)C)NC(=O)[C@@H]2CCCN2C(=O)[C@@H](Cc2ccccc2)NC1=O (cyclo([Orn][Tle][dF]P[Tle][Orn][Tle][dF]P[Tle]))

>  <Retention_time, min>
19.9

$$$$
>  <COMPOUND>
CC(C)C[C@@H]1NC(=O)[C@H](CCCN)NC(=O)[C@H](C(C)C)NC(=O)[C@H](Cc2c[nH]c3ccccc23)NC(=O)[C@@H](Cc2ccccc2)NC(=O)[C@H](CC(C)C)NC(=O)[C@H](CCCN)NC(=O)[C@H](C(C)C)NC(=O)[C@H](Cc2c[nH]c3ccccc23)NC(=O)[C@@H](Cc2ccccc2)NC1=O (HELM PEPTIDE1{L.[dF].W.V.[Orn].L.[dF].W.V.[Orn]}$PEPTIDE1,PEPTIDE1,1:R1-10:R2$$$V2.0)

>  <Retention_time, min>
18.58

$$$$

###

# TEST_DESCRIPTION: Retention time of the compound by RP-HPLC analysis
# Type: physicochemical
Square brackets hold non-standard residues; d marks the D form. Peptide text beside a SMILES is read from it. Tle = CC(C)(C)[C@H](N)C(=O)O; Orn = NCCC[C@H](N)C(=O)O
VALUE_KIND: Retention_time

>  <COMPOUND>
CC(C)C[C@@H]1NC(=O)[C@H](CCCN)NC(=O)[C@H](C(C)(C)C)NC(=O)[C@@H]2CCCN2C(=O)[C@@H](Cc2ccccc2)NC(=O)[C@H](CC(C)C)NC(=O)[C@H](CCCN)NC(=O)[C@H](C(C)C)NC(=O)[C@@H]2CCCN2C(=O)[C@@H](CCCNC(=N)N)NC1=O

>  <MEASURED_VALUE>
16.8 min

$$$$
>  <COMPOUND>
CC(C)C[C@@H]1NC(=O)[C@H](CCCN)NC(=O)[C@H](C(C)(C)C)NC(=O)[C@@H]2CCCN2C(=O)[C@@H](Cc2ccccc2)NC(=O)[C@H](CC(C)C)NC(=O)[C@H](CCCN)NC(=O)[C@H](C(C)C)NC(=O)[C@@H]2CCCN2C(=O)[C@@H](Cc2ccccc2)NC1=O (HELM PEPTIDE1{L.[dF].P.[CC(C)(C)[C@H](N[*:1])C(=O)[*:2]].[Orn].L.[dF].P.V.[Orn]}$PEPTIDE1,PEPTIDE1,1:R1-10:R2$$$V2.0)

>  <MEASURED_VALUE>
19.38 min

$$$$
>  <COMPOUND>
CC(C)(C)[C@@H]1NC(=O)[C@H](CCCN)NC(=O)[C@H](C(C)(C)C)NC(=O)[C@@H]2CCCN2C(=O)[C@@H](Cc2ccccc2)NC(=O)[C@H](C(C)(C)C)NC(=O)[C@H](CCCN)NC(=O)[C@H](C(C)(C)C)NC(=O)[C@@H]2CCCN2C(=O)[C@@H](CCCNC(=N)N)NC1=O (cyclo([Orn][Tle][dF]P[Tle][Orn][Tle][dR]P[Tle]))

>  <MEASURED_VALUE>
16.92 min

$$$$

###

# TEST_DESCRIPTION: Nephrotoxicity against HEK293 cells assessed as cell viability incubated for 24 hrs by MTT assay
# Format: toxicity, cell-based
# CONDITION: human
Square brackets hold non-standard residues; d marks the D form. Peptide text beside a SMILES is read from it. Tle = CC(C)(C)[C@H](N)C(=O)O; Orn = NCCC[C@H](N)C(=O)O

>  <MOLECULE>
CC(C)C[C@@H]1NC(=O)[C@H](CCCN)NC(=O)[C@H](C(C)C)NC(=O)[C@H](Cc2c[nH]c3ccccc23)NC(=O)[C@@H](Cc2c[nH]c3ccccc23)NC(=O)[C@H](CC(C)C)NC(=O)[C@H](CCCN)NC(=O)[C@H](C(C)C)NC(=O)[C@H](Cc2c[nH]c3ccccc23)NC(=O)[C@@H](Cc2c[nH]c3ccccc23)NC1=O

>  <IC50 at 24 h, µg/mL>
19.7

$$$$
>  <MOLECULE>
CC(C)(C)[C@@H]1NC(=O)[C@H](CCCN)NC(=O)[C@H](C(C)(C)C)NC(=O)[C@@H]2CCCN2C(=O)[C@@H](Cc2ccccc2)NC(=O)[C@H](C(C)(C)C)NC(=O)[C@H](CCCN)NC(=O)[C@H](C(C)(C)C)NC(=O)[C@@H]2CCCN2C(=O)[C@@H](CCCNC(=N)N)NC1=O (cyclo([Orn][Tle][dF]P[Tle][Orn][Tle][dR]P[Tle]))

>  <IC50 at 24 h, µg/mL>
12.6

$$$$
>  <MOLECULE>
CC(C)C[C@@H]1NC(=O)[C@H](CCCN)NC(=O)[C@H](C(C)(C)C)NC(=O)[C@@H]2CCCN2C(=O)[C@@H](CCCNC(=N)N)NC(=O)[C@H](CC(C)C)NC(=O)[C@H](CCCN)NC(=O)[C@H](C(C)C)NC(=O)[C@@H]2CCCN2C(=O)[C@@H](Cc2ccccc2)NC1=O

>  <IC50 at 24 h, µg/mL>
38.1

$$$$
